Subject of test: HLA-A*6801 (human)
Experiment summary: competition vs 125I probe, purified HLA
Applied conditions: remark: other sources report otherwise
Value type: IC50 (nM)
# value in nM; strip the unit string

Endpoint output: IC50 of KVYQGSYGFR [p53.101.V2] . Value? 40

If you can, please state the reported IC50 value of KVYQGSYGFK [p53.101.V2K10] . 38

Name the reported IC50 value associated with the binder KMFCQLAK [p53.132] 727

Recorded IC50 for LVHFLLLKY [MAGE2/3.116 (9-mer)] , please? 8000

Find the recorded IC50 belonging to SVSRHKKLMFR [p53.376.V2R11] and report it. 500

Quick one: IC50 of LVHFLLLK [MAGE2/3.116 (8-mer)] ? 400
